- Method Notes: Effective permeability in PBS buffer assessed as mass retention measured after 18 hrs by PAMPA based LC-MS analysis
- Format: ADME
Non-standard residues stand in square brackets, D forms with d. Residues, ends and D or L forms follow the SMILES beside them. NMeL = CN[C@@H](CC(C)C)C(=O)O; NMeV = CN[C@H](C(=O)O)C(C)C; Nva = CCC[C@H](N)C(=O)O; Sar = CNCC(=O)O
Metric Name: Activity (%)

CCC[C@@H]1NC(=O)[C@H](CC(C)C)N(C)C(=O)[C@H](CC(C)C)N(C)C(=O)[C@H](CC(C)C)N(C)C(=O)[C@H](CC(C)C)N(C)C(=O)[C@@H](C)NC(=O)[C@H](C)NC(=O)[C@H](CC(C)C)N(C)C(=O)[C@H](C(C)C)NC(=O)[C@H](CC(C)C)N(C)C(=O)CN(C)C1=O = 74
CCC[C@@H]1NC(=O)[C@H](CC(C)C)N(C)C(=O)[C@H](C(C)C)N(C)C(=O)[C@H](CC(C)C)N(C)C(=O)[C@H](CC(C)C)N(C)C(=O)[C@@H](C)NC(=O)[C@H](CCC(N)=O)NC(=O)[C@H](CC(C)C)N(C)C(=O)[C@H](C(C)C)NC(=O)[C@H](CC(C)C)N(C)C(=O)CN(C)C1=O = 60
CCC[C@@H]1NC(=O)[C@H](CC(C)C)N(C)C(=O)[C@H](C(C)C)N(C)C(=O)[C@H](CC(C)C)N(C)C(=O)[C@H](CC(C)C)N(C)C(=O)[C@@H](C)NC(=O)[C@H](C)NC(=O)[C@H](CC(C)C)N(C)C(=O)[C@H](C(C)C)NC(=O)[C@H](CC(C)C)N(C)C(=O)CN(C)C1=O (cyclo(A[dA][NMeL][NMeL][NMeV][NMeL][Nva][Sar][NMeL]V[NMeL])) = 84

----------
- Method Notes: Permeability across apical to basal side in human Caco-2 cells assessed as drug recovery measured at 0.5 to 2 hrs by LC-MS analysis relative to control
- Format: ADME, cell-based
- Run Conditions: time 0.5-2 hrs, read-out: Drug recovery
Non-standard residues stand in square brackets, D forms with d. Residues, ends and D or L forms follow the SMILES beside them. NMeL = CN[C@@H](CC(C)C)C(=O)O; Nva = CCC[C@H](N)C(=O)O; Sar = CNCC(=O)O
Hi! Just check whether recovery is below 80%. Below gives 1, equal or above gives -1.

CC(C)NCC(O)COc1ccc(CC(N)=O)cc1 (stereo not given) [ATENOLOL] = -1
CCC[C@@H]1NC(=O)[C@H](CC(C)C)N(C)C(=O)[C@H](CC(C)C)N(C)C(=O)[C@H](CC(C)C)N(C)C(=O)[C@H](CC(C)C)N(C)C(=O)[C@@H](C)NC(=O)[C@H](CCC(N)=O)NC(=O)[C@H](CC(C)C)N(C)C(=O)[C@H](C(C)C)NC(=O)[C@H](CC(C)C)N(C)C(=O)CN(C)C1=O (cyclo([NMeL][NMeL][NMeL][NMeL][Nva][Sar][NMeL]V[NMeL]Q[dA])) = -1
CCC[C@@H]1NC(=O)[C@H](CC(C)C)N(C)C(=O)[C@H](C(C)C)N(C)C(=O)[C@H](CC(C)C)N(C)C(=O)[C@H](CC(C)C)N(C)C(=O)[C@@H](C)NC(=O)[C@H](CCC(N)=O)NC(=O)[C@H](CC(C)C)N(C)C(=O)[C@H](C(C)C)NC(=O)[C@H](CC(C)C)N(C)C(=O)CN(C)C1=O = 1
CCC[C@@H]1NC(=O)[C@H](CC(C)C)N(C)C(=O)[C@H](CC(C)C)N(C)C(=O)[C@H](CC(C)C)N(C)C(=O)[C@H](CC(C)C)N(C)C(=O)[C@@H](C)NC(=O)[C@H](C)NC(=O)[C@H](CC(C)C)N(C)C(=O)[C@H](C(C)C)NC(=O)[C@H](CC(C)C)N(C)C(=O)CN(C)C1=O = 1
